Tested on: relapsed AML cells
Experiment: Drug sensitivity assay, 1,536-well, 3-day culture with individual approved drugs at 10 μM, viability by alamarBlue
Format: cell-based, human
Details: number of relapsed AML cases out of 18 tested with >70% cell death; 10 μM, 3-day culture
Description: Drug sensitivity assays were performed using a 1,536-well platform where all cells and reagents were deposited in wells using an acoustic liquid handling unit that is highly accurate for dispensing of nanoliter volumes of liquid. […] After dispensing the cells into the wells, an independent drug at a known concentration is added to each well and incubated with the cells. After three days, the percentage of live cells in each well is determined to assess the killing efficiency of each compound. […]
Give #Cases >70% cell death for every item shown.
Just the number, please, no unit attached.

Reported #Cases >70% cell death of Cc1nc2ccccc2n1Cc1ccc(Cl)cc1 [CHLORMIDAZOLE] : 1

Sample CCc1ccc(OCc2ccccc2C(=O)Nc2ccc3nc(C)cc(N)c3c2)cc1 [JTC-801] ; #Cases >70% cell death observed: 18

The measured #Cases >70% cell death associated with COc1cc(Nc2c(C#N)cnc3cc(OCCCN4CCN(C)CC4)c(OC)cc23)c(Cl)cc1Cl [BOSUTINIB] reads 12

Entry CCCC(=O)O[C@]1(C(=O)COC(C)=O)CC[C@H]2[C@@H]3C[C@H](F)C4=CC(=O)C=C[C@]4(C)[C@@]3(F)[C@@H](O)C[C@@]21C [DIFLUPREDNATE] — recorded #Cases >70% cell death = 1

# molecule C[C@@H](Oc1cc(-n2cnc3ccc(CN4CCN(C)CC4)cc32)sc1C(N)=O)c1ccccc1C(F)(F)F [GSK 461364] ; its #Cases >70% cell death = 9

Just so you know, measured #Cases >70% cell death for O=c1[nH]c(=O)n([C@H]2C[C@H](O)[C@@H](CO)O2)cc1F [FLOXURIDINE] came out at 8

// O=C(CCCCCCC(=O)Nc1cccnc1)NO [PYROXAMIDE] : #Cases >70% cell death value = 15

response.value for O=C(c1ccc(/C=C/c2n[nH]c3ccccc23)cc1)N1CCNCC1 [KW-2449] (field: #Cases >70% cell death) = 9
